biological target: CDK2/Cyclin E1 (Homo sapiens (Human)); experiment: Caliper LabChip EZ Reader mobility shift assay; format: biochemical; details: 2.5 nM CDK2/Cyclin E1 (14-475), 100 μM ATP, 1.5 μM fluorescent peptide; read-out: Caliper Assay (CDK2/CCNE1): IC50
Here, each record is paired with measured IC50 data.

// solved cases for IC50 follow
* CNC(=O)C(NC(=O)[C@@H]1CN(C(=O)c2cncs2)CC12CN(c1nc(C(F)(F)F)co1)C2)[C@@H](C)OCC12CCC(CC1)OC2 (stereo partly drawn) | > 10 µM
* C[C@@H](OCC12CCC(CC1)OC2)C(NC(=O)[C@@H]1CN(c2cccc3ncsc23)CC12CN(C(=O)[C@H]1CC1(C)C)C2)C(C)(C)O (stereo partly drawn) | > 10 µM

Looking for the measured IC50 of C[C@@H](OCC12CCC(CC1)OC2)[C@H](NC(=O)[C@@H]1CN(c2cc(F)cc3ncsc23)CC12CN(C(=O)[C@H]1CC1(C)C)C2)C(=O)N1CCC(c2ccncc2)CC1 , can you help?
≤ 0.01 µM

###

system: Kuramochi cells; experiment: BrdU cell proliferation assay; format: cell-based; settings: 96 h, developed on day 4, read-out: BrdU - KURAMOCHI.1: IC50
pIC50: −log10 of the molar value.
Value type: pIC50

// solved cases for pIC50 follow
- C[C@@H](OCC1CCCCC1)[C@H](NC(=O)[C@@H]1CN(c2cccc3scnc23)CC12CN(C(=O)[C@H]1CC1(C)C)C2)C(=O)N1CCCCC1: 5.00 to 5.30
- C[C@@H](OCC12CCC(CC1)OC2)[C@H](NC(=O)[C@@H]1CN(C(=O)c2cncs2)CC12CN(c1ncco1)C2)C(C)(C)O: < 5.00
- C[C@@H](OCC1CCCCC1)[C@H](NC(=O)[C@@H]1CN(c2cccc3[nH]ccc23)CC12CN(C(=O)[C@H]1CC1(C)C)C2)C(=O)N1CCCCC1: < 5.00
- CNC(=O)[C@@H](NC(=O)[C@@H]1CN(C(=O)c2cnn(Cc3ccccc3)c2)CC12CN(c1ncco1)C2)[C@@H](C)OCC1CCCCC1: < 5.00
- C[C@@H](OCC1CCCCC1)[C@H](NC(=O)[C@@H]1CN(c2nccc3cn[nH]c23)CC12CN(C(=O)[C@H]1CC1(C)C)C2)C(=O)N1CCCCC1 [Compound I-12, 2,2,2-trifluoroacetate]: < 5.00

Looking for the measured pIC50 of C[C@@H](OCC1CCCCC1)[C@H](NC(=O)[C@@H]1CN(c2nccc3scnc23)CC12CN(C(=O)[C@H]1CC1(C)C)C2)C(=O)N1CCCCC1 , can you help?
< 5.00

###

Target: CDK2/Cyclin E1 (Homo sapiens (Human))
Experiment: ADP-Glo Luminescent Kinase Assay, ADPGLO (CDK2/E1-37C)
Format: biochemical
Settings: 0.18 nM CDK2/Cyclin E1, 100 μM ATP, 1.5 μM Histone H1, 37° C.; read-out: Pharmaron ADPGLO (CDK2/E1-37C): IC50
Description: Inhibition of CDK2/Cyclin E1 activity by the presence of small molecules was evaluated using ADP-Glo Luminescent Kinase Assay (Promega). […] Luminescence was recorded with an Envision plate reader (PerkinElmer). Dose titrations of inhibitors in 100% DMSO were combined with 0.36 nM CDK2/Cyclin E1 in reaction buffer. […] This mixture was incubated at room temperature for 60 minutes before Kinase Detection Solution is added to generate luminescence. […]
Value type: IC50

- C[C@@H](OCC12CCC(CC1)OC2)[C@H](NC(=O)[C@@H]1CN(c2cc(F)cc3ncsc23)CC12CN(C(=O)C1(C(F)(F)F)CC1)C2)C(=O)N1CCC2(CC1)COC2 [Compound I-46]: > 10 µM
- COc1ccc(S(=O)(=O)NC(=O)[C@@H](NC(=O)[C@@H]2CN(c3cc(F)cc4ncsc34)CC23CN(C(=O)C2(C(F)(F)F)CC2)C3)[C@@H](C)OCC23CCC(CC2)OC3)cc1 [Compound I-50]: 5 to 10 µM
- C[C@@H](OCC12CCC(CC1)OC2)[C@H](NC(=O)[C@@H]1CN(c2cc(F)cc3ncsc23)CC12CN(C(=O)C1(C(F)(F)F)CC1)C2)C(=O)N1CCC(c2nccs2)CC1 [Compound I-48]: 0.5 to 5 µM
- C[C@@H](OCC12CCC(CC1)OC2)[C@H](NC(=O)[C@@H]1CN(c2cccc3nc(O)cnc23)CC12CN(C(=O)C1(C(F)(F)F)CC1)C2)C(=O)N1CCC(c2nccs2)CC1 [Compound I-45]: > 10 µM

Looking for the measured IC50 of C[C@@H](OCC12CCC(CC1)OC2)[C@@H](COc1ccccc1C(=O)O)NC(=O)[C@@H]1CN(c2cc(F)cc3ncsc23)CC12CN(C(=O)C1(C(F)(F)F)CC1)C2 [Compound I-49] , can you help?
> 10 µM
